# Assay Remarks: in vitro
# Setup Conditions: Sprague-Dawley, rat, liver microsomes
The reader will find reported microsomal CLint at 1 h, 10 µM values listed item by item below.

| Compound Smiles | microsomal CLint at 1 h, 10 µM |
| --- | --- |
| O=C(O)Cc1ccccc1Nc1c(Cl)cccc1Cl | 107 µL/min/mg |
| O=C(Cc1ccccc1)Nc1nc2ccc(N(CCN3CCOCC3)C(=O)Nc3ccc(Cl)cc3)cc2s1 | 1480 µL/min/mg |
| Nc1nc2ccc(N(CCN3CCOCC3)C(=O)Nc3ccc(F)c(Br)c3)cc2s1 | 55.8 µL/min/mg |
| Nc1nc2ccc(N(CCN3CCOCC3)C(=O)Nc3ccc(Cl)cc3)cc2s1 | 71.9 µL/min/mg |
